Procedure summary: qHTS RealTime-Glo MT Cell Viability Assay in HEK293 cells - 24 hour (AID 1224886); also: nearly all actives have a fitted effect of over 50% in size
Run conditions: RealTime-Glo luminescence; series mostly up to 76.8 µM
Records with an inconclusive call do not appear. The source made the active and inactive calls. Calls follow the shape of the dose curve; as a rule, active = well fitted cell-killing curve with a large enough effect in the repeat runs; inconclusive = weak or mixed curves, or effect the other way; inactive = flat fitted curve, though single readings scatter.
Give one outcome, nothing more. List: Yes for active, No for inactive

I would be grateful if you could indicate the recorded call for O=[N+]([O-])c1cccc(I)c1 .
No

I would be grateful if you could indicate the recorded call for CC(=O)Nc1ccn(C2COC(COC(=O)c3ccccc3)O2)c(=O)n1 (configuration not stated) .
No

I would be grateful if you could indicate the recorded call for CCC(CC)C(=O)O .
No

I would be grateful if you could indicate the recorded call for Nc1ccc(F)cc1F .
No

I would be grateful if you could indicate the recorded call for CC(C)C/C=C(\C=O)c1ccccc1 .
No

I would be grateful if you could indicate the recorded call for CC/C=C\CCO .
No

I would be grateful if you could indicate the recorded call for O=C(c1ccc(Cl)cc1)c1ccc(Cl)cc1 .
No

I would be grateful if you could indicate the recorded call for CCC1=C(C)CN(C(=O)NCCc2ccc(S(=O)(=O)NC(=O)NC3CCC(C)CC3)cc2)C1=O (configuration not stated) .
No

I would be grateful if you could indicate the recorded call for N#CCCCC(C#N)CCC#N (configuration not stated) .
No

I would be grateful if you could indicate the recorded call for CC(C)Cc1nccs1 .
No

I would be grateful if you could indicate the recorded call for CC1=C(C)C(=O)C(C(CCCCCC(=O)O)c2ccccc2)=C(C)C1=O (configuration not stated) .
No

I would be grateful if you could indicate the recorded call for COc1ccnc2c1CCCCC2S(=O)c1nc2ccccc2[nH]1 (configuration not stated) .
Yes

I would be grateful if you could indicate the recorded call for CC(Cc1ccccc1)(NC(=O)CN)c1ccccc1 (configuration not stated) .
No

I would be grateful if you could indicate the recorded call for CCCCCCCCCCCCN1CCOCC1 .
No

I would be grateful if you could indicate the recorded call for CC(C(=O)O)c1ccc2c(c1)Cc1cccnc1O2 (configuration not stated) .
No

I would be grateful if you could indicate the recorded call for c1ccc(CCNc2nc(-c3ccccc3)cs2)cc1 .
No

I would be grateful if you could indicate the recorded call for O=S(=O)(O)c1cc(Cl)c(Cl)cc1Cl .
No

I would be grateful if you could indicate the recorded call for COc1ccc(/C=C/S(=O)(=O)NC(=O)c2ccc(C)cc2Cl)cc1 .
No

I would be grateful if you could indicate the recorded call for O=C1CCCN1CCO .
No

I would be grateful if you could indicate the recorded call for Nc1nc(Cl)nc2c1ncn2[C@H]1C[C@H](O)[C@@H](CO)O1 .
No

I would be grateful if you could indicate the recorded call for CC(C)(C)N .
No

I would be grateful if you could indicate the recorded call for O=C1OC(=O)C2CC=CCC12 (configuration not stated) .
No

These entries and their values trace back to PubChem BioAssay (Tox21).
